Exercise: for every item that follows, state its recorded inhibition of growth at 100 µg/mL.
Tested on: Echinochloa crus-galli
RUN DESCRIPTION: Herbicidal activity against barnyard grass Echinochloa crus-galli (barnyard grass) assessed as inhibition of stalk growth at 100 mg/L relative to untreated control
Assay type: functional
MEASUREMENT SETUP: read-out: GI
Numbers only, in %.

Examples with their reported inhibition of growth at 100 µg/mL follow.
GIVEN SMILES: CCC/N=c1\sc(C(=O)OCC)c(N)n1-c1ccccc1
UNIT SYMBOL: %
inhibition of growth at 100 µg/mL: 35.5

GIVEN SMILES: O=C(O)COc1ccc(Cl)cc1Cl
UNIT SYMBOL: %
inhibition of growth at 100 µg/mL: 43.5

GIVEN SMILES: CCCC/N=c1\sc(C(=O)OCC)c(N)n1-c1ccccc1
UNIT SYMBOL: %
inhibition of growth at 100 µg/mL: 22.6

Could you tell me inhibition of growth at 100 µg/mL for each of these molecules? They are listed below.
1. CCOC(=O)c1s/c(=N\c2ccc(Br)cc2)n(-c2ccccc2)c1N
2. CCOC(=O)c1s/c(=N\CCCCCC/N=c2/sc(C(=O)OCC)c(N)n2-c2ccccc2)n(-c2ccccc2)c1N

**Result**
1: 48.1; 2: 38.5

Could you tell me inhibition of growth at 100 µg/mL for each of these molecules? They are listed below.
1. CCOC(=O)c1s/c(=N\Cc2ccccc2Cl)n(-c2ccccc2)c1N
2. CCCCCC/N=c1\sc(C(=O)OCC)c(N)n1-c1ccccc1
3. CCOC(=O)c1s/c(=N\Cc2ccccc2)n(-c2ccccc2)c1N
4. CCOC(=O)c1s/c(=N\CC/N=c2/sc(C(=O)OCC)c(N)n2-c2ccccc2)n(-c2ccccc2)c1N
5. CCOC(=O)c1s/c(=N\c2ccc(C)cc2)n(-c2ccccc2)c1N

**Result**
26.5
33.3
44.4
34.6
49.6

Could you tell me inhibition of growth at 100 µg/mL for each of these molecules? They are listed below.
1. CCOC(=O)c1s/c(=N\c2ccccc2)n(-c2ccccc2)c1N
2. CCOC(=O)c1s/c(=N\c2ccc(OC)cc2)n(-c2ccccc2)c1N
3. CCOC(=O)c1s/c(=N\CCC/N=c2\sc(C(=O)OCC)c(N)n2-c2ccccc2)n(-c2ccccc2)c1N

**Result**
1. 43.3
2. 61.9
3. 34.6

###

Exercise: for every item that follows, state its recorded inhibition of growth at 100 µg/mL.
Tested on: Brassica napus
RUN DESCRIPTION: Herbicidal activity against Brassica napus (oilseed rape) assessed as inhibition of root growth at 100 mg/L relative to untreated control
Format: functional
MEASUREMENT SETUP: read-out: GI
Numbers only, in %.

Examples with their reported inhibition of growth at 100 µg/mL follow.
GIVEN SMILES: CCOC(=O)c1s/c(=N\c2ccc(Br)cc2)n(-c2ccccc2)c1N
SUBJECT OF TEST: Brassica napus
REPORTED PROPERTY: inhibition of growth at 100 µg/mL
UNIT SYMBOL: %
ASSAY RESULT: 90.6
--
GIVEN SMILES: CCOC(=O)c1s/c(=N\Cc2ccccc2)n(-c2ccccc2)c1N
SUBJECT OF TEST: Brassica napus
REPORTED PROPERTY: inhibition of growth at 100 µg/mL
UNIT SYMBOL: %
ASSAY RESULT: 98.1
--
GIVEN SMILES: CCOC(=O)c1s/c(=N\c2ccc(OC)cc2)n(-c2ccccc2)c1N
SUBJECT OF TEST: Brassica napus
REPORTED PROPERTY: inhibition of growth at 100 µg/mL
UNIT SYMBOL: %
ASSAY RESULT: 94.3
--
GIVEN SMILES: CCC/N=c1\sc(C(=O)OCC)c(N)n1-c1ccccc1
SUBJECT OF TEST: Brassica napus
REPORTED PROPERTY: inhibition of growth at 100 µg/mL
UNIT SYMBOL: %
ASSAY RESULT: 48
--
GIVEN SMILES: CCOC(=O)c1s/c(=N\CCCCCC/N=c2/sc(C(=O)OCC)c(N)n2-c2ccccc2)n(-c2ccccc2)c1N
SUBJECT OF TEST: Brassica napus
REPORTED PROPERTY: inhibition of growth at 100 µg/mL
UNIT SYMBOL: %
ASSAY RESULT: 50
--
GIVEN SMILES: CCCC/N=c1\sc(C(=O)OCC)c(N)n1-c1ccccc1
SUBJECT OF TEST: Brassica napus
REPORTED PROPERTY: inhibition of growth at 100 µg/mL
UNIT SYMBOL: %
ASSAY RESULT: 29.3
--
GIVEN SMILES: O=C(O)COc1ccc(Cl)cc1Cl
SUBJECT OF TEST: Brassica napus
REPORTED PROPERTY: inhibition of growth at 100 µg/mL
UNIT SYMBOL: %
ASSAY RESULT: 98
--
GIVEN SMILES: CCOC(=O)c1s/c(=N\c2ccc(C)cc2)n(-c2ccccc2)c1N
SUBJECT OF TEST: Brassica napus
REPORTED PROPERTY: inhibition of growth at 100 µg/mL
UNIT SYMBOL: %
ASSAY RESULT: 79.2
--
GIVEN SMILES: CCOC(=O)c1s/c(=N\Cc2ccccc2Cl)n(-c2ccccc2)c1N
SUBJECT OF TEST: Brassica napus
REPORTED PROPERTY: inhibition of growth at 100 µg/mL
UNIT SYMBOL: %
ASSAY RESULT: 38.6
--
GIVEN SMILES: CCOC(=O)c1s/c(=N\CC/N=c2/sc(C(=O)OCC)c(N)n2-c2ccccc2)n(-c2ccccc2)c1N
SUBJECT OF TEST: Brassica napus
REPORTED PROPERTY: inhibition of growth at 100 µg/mL
UNIT SYMBOL: %
ASSAY RESULT: 76.9

Could you tell me inhibition of growth at 100 µg/mL for each of these compounds? They are listed below.
1. CCOC(=O)c1s/c(=N\c2ccccc2)n(-c2ccccc2)c1N
2. CCOC(=O)c1s/c(=N\CCC/N=c2\sc(C(=O)OCC)c(N)n2-c2ccccc2)n(-c2ccccc2)c1N
3. CCCCCC/N=c1\sc(C(=O)OCC)c(N)n1-c1ccccc1

**Result**
[71.7, 41, 92.5]

###

System: Brassica napus
RUN DESCRIPTION: Herbicidal activity against Brassica napus (oilseed rape) assessed as inhibition of root growth at 10 mg/L relative to untreated control
Assay type: functional
MEASUREMENT SETUP: read-out: GI
REPORTED PROPERTY: inhibition of growth at 10 µg/mL (%)
Answers are plain numbers, in %.

Examples with their reported inhibition of growth at 10 µg/mL follow.
GIVEN SMILES: CCOC(=O)c1s/c(=N\c2ccc(C)cc2)n(-c2ccccc2)c1N
ASSAY RESULT: 34

GIVEN SMILES: CCOC(=O)c1s/c(=N\c2ccc(Br)cc2)n(-c2ccccc2)c1N
ASSAY RESULT: 32.1

GIVEN SMILES: CCOC(=O)c1s/c(=N\c2ccccc2)n(-c2ccccc2)c1N
ASSAY RESULT: 37.7

GIVEN SMILES: CCOC(=O)c1s/c(=N\CCC/N=c2\sc(C(=O)OCC)c(N)n2-c2ccccc2)n(-c2ccccc2)c1N
ASSAY RESULT: 7.7

GIVEN SMILES: CCOC(=O)c1s/c(=N\CCCCCC/N=c2/sc(C(=O)OCC)c(N)n2-c2ccccc2)n(-c2ccccc2)c1N
ASSAY RESULT: 21.8

Could you tell me inhibition of growth at 10 µg/mL for each of these molecules? They are listed below.
1. CCC/N=c1\sc(C(=O)OCC)c(N)n1-c1ccccc1
2. CCOC(=O)c1s/c(=N\CC/N=c2/sc(C(=O)OCC)c(N)n2-c2ccccc2)n(-c2ccccc2)c1N
3. O=C(O)COc1ccc(Cl)cc1Cl
4. CCCC/N=c1\sc(C(=O)OCC)c(N)n1-c1ccccc1
5. CCCCCC/N=c1\sc(C(=O)OCC)c(N)n1-c1ccccc1

**Result**
[40, 39.7, 88.8, 0, 43.4]

###

System: Brassica napus
RUN DESCRIPTION: Herbicidal activity against Brassica napus (oilseed rape) assessed as inhibition of root growth at 10 mg/L relative to untreated control
Assay type: functional
MEASUREMENT SETUP: read-out: GI
REPORTED PROPERTY: inhibition of growth at 10 µg/mL (%)
One number for each entry, in %.

Examples with their reported inhibition of growth at 10 µg/mL follow.
GIVEN SMILES: CCOC(=O)c1s/c(=N\Cc2ccccc2Cl)n(-c2ccccc2)c1N
ASSAY RESULT: -9.3
--
GIVEN SMILES: CCOC(=O)c1s/c(=N\c2ccc(OC)cc2)n(-c2ccccc2)c1N
ASSAY RESULT: 64

Now for a further compound.
# CCOC(=O)c1s/c(=N\Cc2ccccc2)n(-c2ccccc2)c1N with Brassica napus: inhibition of growth at 10 µg/mL is 47.2
